Ref: ChEMBL document CHEMBL3603821

Recorded GI50 for the following compounds
System: KB
Protocol summary: Antiproliferative activity against human KB cells assessed as cell growth inhibition by SRB assay
Type: functional
Numbers only here, please. The scale is µM.

Guide cases for GI50, answers given:
| Compound | GI50 (µM) |
| --- | --- |
| COc1ccc2c(c1)CCCN2c1ncnc2ccccc12 | 0.014 |
| COc1ccc2c(c1)CCCN2c1nc(NCCCO)nc2ccccc12 | 0.018 |

Return reported GI50; argument: COc1ccc2c(c1)CCCN2c1nc(NC2CCCC2)nc2ccccc12
1.19

Input COc1ccc2c(c1)CCCN2c1ccnc2ccccc12
0.16

Input COc1ccc(/C=C\c2cc(OC)c(OC)c(OC)c2)cc1O [COMBRETASTATIN A4]
0.0036

Input COc1ccc2c(c1)CCCN2c1cncc2ccccc12
1.48

Input COc1ccc2c(c1)CCCN2c1nccc2ccccc12
1.72

Input COc1ccc2c(c1)CCCN2c1nc(N)nc2[nH]cnc12
17.5

Input COc1ccc2c(c1)CCCN2c1nc(N(C)C)nc2ccccc12
0.14

Input COc1ccc2c(c1)CCCN2c1cccc2cccnc12
16.2

Input COc1ccc2c(c1)CCCN2c1nc(NC2CC2)nc2ccccc12
0.013

Input CC(=O)O[C@H]1C(=O)[C@@]2(C)[C@H]([C@H](OC(=O)c3ccccc3)[C@]3(O)C[C@H](OC(=O)[C@H](O)[C@@H](NC(=O)c4ccccc4)c4ccccc4)C(C)=C1C3(C)C)[C@]1(OC(C)=O)CO[C@@H]1C[C@@H]2O [PACLITAXEL]
0.0064

Input COc1ccc2c(c1)CCCN2c1nc(OC)nc2ccccc12
0.026
